organism: Homo sapiens; assay: Relative potency of peptide to stimulate beta-glucuronidase release from human polymorphonuclear cells (PMN) (n=4); assay type: functional
Observable: Potency (%)
Value expressed in %; do not type the unit.

*Q* Recorded Potency of `CSCC[C@H](NC(=O)[C@@H]1CCCN1C(=O)[C@H](CCCCN)NC(=O)[C@H](Cc1ccccc1)NC(=O)[C@H](CO)NC(=O)[C@H](Cc1ccc(O)cc1)NC(=O)CCCCCN)C(=O)N1CCC[C@H]1C(=O)N[C@@H](CC(C)C)C(=O)N[C@H](C)C(=O)N[C@@H](CCCN=C(N)N)C(=O)O` , please.
*A* 1.2

====

species: Homo sapiens; assay: Relative potency of peptide to stimulate beta-glucuronidase release from human polymorphonuclear cells (PMN) (n=4); type: functional
In this section we review reported Potency values for a set of compounds.
Value expressed in %; do not type the unit.

// solved cases for Potency follow
cpd_smiles=CSCC[C@H](NC(=O)[C@@H]1CCCN1C(=O)[C@H](CCCCN)NC(=O)[C@H](Cc1ccccc1)NC(=O)[C@H](CO)NC(=O)[C@H](Cc1ccc(O)cc1)NC(=O)CCCCCNC(=O)[C@H](Cc1c[nH]c2ccccc12)NC(=O)[C@@H](N)CC(=O)O)C(=O)N1CCC[C@H]1C(=O)N[C@@H](CC(C)C)C(=O)N[C@H](C)C(=O)N[C@@H](CCCN=C(N)N)C(=O)O result_unit=% numeric_value=0.5
cpd_smiles=CSCC[C@H](NC(=O)[C@@H]1CCCN1C(=O)[C@H](CCCCN)NC(=O)[C@H](Cc1ccccc1)NC(=O)[C@H](CO)NC(=O)[C@H](Cc1ccc(O)cc1)NC(=O)CNC(=O)CNC(=O)CNC(=O)[C@H](CCCCN)NC(=O)CNC(=O)[C@H](CCCCN)NC(=O)CNC(=O)[C@@H](N)CCCCN)C(=O)N1CCC[C@H]1C(=O)N[C@@H](CC(C)C)C(=O)N[C@H](C)C(=O)N[C@@H](CCCN=C(N)N)C(=O)O result_unit=% numeric_value=1.8
cpd_smiles=CSCC[C@H](NC(=O)[C@@H]1CCCN1C(=O)[C@H](CCCCN)NC(=O)[C@H](Cc1ccccc1)NC(=O)[C@H](CO)NC(=O)[C@H](Cc1ccc(O)cc1)NC(=O)CCCCCNC(=O)[C@H](CCCCN)NC(=O)CNC(=O)[C@H](CCCCN)NC(=O)CNC(=O)[C@@H](N)CCCCN)C(=O)N1CCC[C@H]1C(=O)N[C@@H](CC(C)C)C(=O)N[C@H](C)C(=O)N[C@@H](CCCN=C(N)N)C(=O)O result_unit=% numeric_value=0.6

# input for lookup
*Q* Recorded Potency of `CSCC[C@H](NC(=O)[C@@H]1CCCN1C(=O)[C@H](CCCCN)NC(=O)[C@H](Cc1ccccc1)NC(=O)[C@H](CO)NC(=O)[C@H](Cc1ccc(O)cc1)NC(=O)[C@H](CCCCN)NC(=O)CNC(=O)[C@H](CCCCN)NC(=O)CNC(=O)[C@@H](N)CCCCN)C(=O)N1CCC[C@H]1C(=O)N[C@@H](CC(C)C)C(=O)N[C@H](C)C(=O)N[C@@H](CCCN=C(N)N)C(=O)O` , please.
*A* 0.9

====

species: Homo sapiens; assay: Tested for the ability to stimulate beta-glucuronidase release from human polymorphonuclear cells (PMN) (n=4); type: functional
In this section we review reported pD2 values for a set of compounds.

// solved cases for pD2 follow
cpd_smiles=CSCC[C@H](NC(=O)[C@@H]1CCCN1C(=O)[C@H](CCCCN)NC(=O)[C@H](Cc1ccccc1)NC(=O)[C@H](CO)NC(=O)[C@H](Cc1ccc(O)cc1)NC(C)=O)C(=O)N1CCC[C@H]1C(=O)N[C@@H](CC(C)C)C(=O)N[C@H](C)C(=O)N[C@@H](CCCN=C(N)N)C(=O)O observable=pD2 result=5.03
cpd_smiles=CSCC[C@H](NC(=O)[C@@H]1CCCN1C(=O)[C@H](CCCCN)NC(=O)[C@H](Cc1ccccc1)NC(=O)[C@H](CO)NC(=O)[C@H](Cc1ccc(O)cc1)NC(=O)CNC(=O)CNC(=O)CNC(=O)[C@H](CCCCN)NC(=O)CNC(=O)[C@H](CCCCN)NC(=O)CNC(=O)[C@@H](N)CCCCN)C(=O)N1CCC[C@H]1C(=O)N[C@@H](CC(C)C)C(=O)N[C@H](C)C(=O)N[C@@H](CCCN=C(N)N)C(=O)O observable=pD2 result=5.71
cpd_smiles=CSCC[C@H](NC(=O)[C@@H]1CCCN1C(=O)[C@H](CCCCN)NC(=O)[C@H](Cc1ccccc1)NC(=O)[C@H](CO)NC(=O)[C@H](Cc1ccc(O)cc1)NC(=O)CCCCCNC(=O)[C@H](CCCCN)NC(=O)CNC(=O)[C@H](CCCCN)NC(=O)CNC(=O)[C@@H](N)CCCCN)C(=O)N1CCC[C@H]1C(=O)N[C@@H](CC(C)C)C(=O)N[C@H](C)C(=O)N[C@@H](CCCN=C(N)N)C(=O)O observable=pD2 result=5.18

*Q* Recorded pD2 of `CSCC[C@H](NC(=O)[C@@H]1CCCN1C(=O)[C@H](CCCCN)NC(=O)[C@H](Cc1ccccc1)NC(=O)[C@H](CO)NC(=O)[C@H](Cc1ccc(O)cc1)NC(=O)[C@H](CCCCN)NC(=O)CNC(=O)[C@H](CCCCN)NC(=O)CNC(=O)[C@@H](N)CCCCN)C(=O)N1CCC[C@H]1C(=O)N[C@@H](CC(C)C)C(=O)N[C@H](C)C(=O)N[C@@H](CCCN=C(N)N)C(=O)O` , please.
*A* 5.4

====

species: Homo sapiens; test: Relative potency of peptide to stimulate beta-glucuronidase release from human polymorphonuclear cells (PMN) (n=4); assay type: functional
In this section we review reported Potency values for a set of compounds.
Value expressed in %; do not type the unit.

*Q* Recorded Potency of `CSCC[C@H](NC(=O)[C@@H]1CCCN1C(=O)[C@H](CCCCN)NC(=O)[C@H](Cc1ccccc1)NC(=O)[C@H](CO)NC(=O)[C@H](Cc1ccc(O)cc1)NC(C)=O)C(=O)N1CCC[C@H]1C(=O)N[C@@H](CC(C)C)C(=O)N[C@H](C)C(=O)N[C@@H](CCCN=C(N)N)C(=O)O` , please.
*A* 0.4

*Q* Recorded Potency of `CSCC[C@H](NC(=O)[C@@H]1CCCN1C(=O)[C@H](CCCCN)NC(=O)[C@H](Cc1ccccc1)NC(=O)[C@H](CO)NC(=O)[C@H](Cc1ccc(O)cc1)NC(=O)CCCCCNC(=O)[C@H](CCCCN)NC(=O)CNC(=O)[C@@H](N)CCCCN)C(=O)N1CCC[C@H]1C(=O)N[C@@H](CC(C)C)C(=O)N[C@H](C)C(=O)N[C@@H](CCCN=C(N)N)C(=O)O` , please.
*A* 1

====

species: Homo sapiens; experiment: Log potency ratio [pD2(C5a)-pD2(peptide)] was determined in human polymorphonuclear cells (PMN) (n=4); assay type: functional
In this section we review reported Mean log concentration ratio values for a set of compounds.

// solved cases for Mean log concentration ratio follow
cpd_smiles=CSCC[C@H](NC(=O)[C@@H]1CCCN1C(=O)[C@H](CCCCN)NC(=O)[C@H](Cc1ccccc1)NC(=O)[C@H](CO)NC(=O)[C@H](Cc1ccc(O)cc1)NC(=O)CCCCCNC(=O)[C@H](Cc1c[nH]c2ccccc12)NC(=O)[C@@H](N)CC(=O)O)C(=O)N1CCC[C@H]1C(=O)N[C@@H](CC(C)C)C(=O)N[C@H](C)C(=O)N[C@@H](CCCN=C(N)N)C(=O)O result=2.3
cpd_smiles=CSCC[C@H](NC(=O)[C@@H]1CCCN1C(=O)[C@H](CCCCN)NC(=O)[C@H](Cc1ccccc1)NC(=O)[C@H](CO)NC(=O)[C@H](Cc1ccc(O)cc1)NC(=O)CCCCCNC(=O)[C@H](CCCCN)NC(=O)CNC(=O)[C@H](CCCCN)NC(=O)CNC(=O)[C@@H](N)CCCCN)C(=O)N1CCC[C@H]1C(=O)N[C@@H](CC(C)C)C(=O)N[C@H](C)C(=O)N[C@@H](CCCN=C(N)N)C(=O)O result=2.2

# input for lookup
*Q* Recorded Mean log concentration ratio of `CSCC[C@H](NC(=O)[C@@H]1CCCN1C(=O)[C@H](CCCCN)NC(=O)[C@H](Cc1ccccc1)NC(=O)[C@H](CO)NC(=O)[C@H](Cc1ccc(O)cc1)NC(=O)CCCCCNC(=O)[C@H](CCCCN)NC(=O)CNC(=O)[C@@H](N)CCCCN)C(=O)N1CCC[C@H]1C(=O)N[C@@H](CC(C)C)C(=O)N[C@H](C)C(=O)N[C@@H](CCCN=C(N)N)C(=O)O` , please.
*A* 1.99
